- system: T1, Cynomolgus monkey Serum Albumin (Cynomolgus monkey, UniProt A2V9Z4 25-608)
- T1 construct: mature; purified protein on CM5 chips for BIAcore; also called CSA; cyno SA
- T1 sequence (A2V9Z4 25-608): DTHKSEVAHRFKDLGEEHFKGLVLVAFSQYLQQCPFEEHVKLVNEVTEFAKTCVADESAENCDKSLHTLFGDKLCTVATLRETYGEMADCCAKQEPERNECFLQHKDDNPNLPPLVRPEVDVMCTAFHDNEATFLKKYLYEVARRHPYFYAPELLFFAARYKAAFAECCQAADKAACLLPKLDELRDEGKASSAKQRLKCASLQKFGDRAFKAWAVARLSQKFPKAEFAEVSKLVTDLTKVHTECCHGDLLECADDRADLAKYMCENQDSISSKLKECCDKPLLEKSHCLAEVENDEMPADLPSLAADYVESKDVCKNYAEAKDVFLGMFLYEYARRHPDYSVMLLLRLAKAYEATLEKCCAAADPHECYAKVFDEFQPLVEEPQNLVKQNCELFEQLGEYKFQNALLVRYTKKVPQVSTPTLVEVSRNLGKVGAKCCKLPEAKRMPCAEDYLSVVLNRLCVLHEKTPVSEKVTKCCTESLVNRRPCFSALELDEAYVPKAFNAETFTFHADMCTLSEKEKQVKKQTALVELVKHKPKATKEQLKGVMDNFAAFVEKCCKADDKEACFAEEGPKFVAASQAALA
- assay_overview: BIAcore SPR
readout_label: pKd
Kindly note that pKd refers to -log10 of the concentration in mol/L and answer with the value alone.

INSERT INTO results (binder, readout_label, obs_value) VALUES
  ('DOM7h-11-69 (other, Vk dAb) VL: DIQMTQSPSSLSASVGDRVTITCRASRPIGTMLSWYQQKPGKAPKLLILAFSRLQSGVPSRFSGSGSGTDFTLTISSLQPEDFATYYCAQAGVHPTTFGQGTKVEIKR', 'pKd', 8.23);

Next, consider the following binder.
**Query** I have this binder here, DOM7h-11-56 (other, Vk dAb) VL: DIQMTQSPSSLSASVGDRVTISCRASRPIGTMLSWYQQKPGKAPKLLILAFSRLQSGVPSRFSGSGSGTDFTLTISSLQPEDFATYYCAQAGTHPTTFGQGTKVEIKW , and I need its recorded pKd.
**Result** 8.28
